# Percent Effect values compiled below
Test system: Wolbachia pipientis
assay procedure: Anti-Wolbachia Cell-Based Screen
Assay type: functional
Design: scale not given: in the data most compounds retested in dose-response had high values
condition parameters: 5 µM
Hit rate of the full screen: of about 48,000 compounds, about 13,000 (27%) showed an effect of 50% or more. The list shows a part of the results.
Quick reminder: number only, in %, skip the unit.

Query :: Tell me its Percent Effect given O=C(NC[C@H]1OC[C@@H](NCc2cccs2)[C@@H]1O)N1CCOCC1 as the entry.
Result :: 1.798

New cases:
Query :: Supply recorded Percent Effect for CS(=O)(=O)N1CCCC12CCCN(C(=O)c1ccno1)C2 (stereo unspecified) here.
Result :: -3.748

Query :: For the compound CN1CCC2(CC1)CN(C(=O)c1onc3ccccc13)CCCN2C , give its measured Percent Effect value.
Result :: 72.92

Query :: Give recorded Percent Effect. CC(=O)N1CCCC2(CCN(C(=O)c3nn(C)c4ccccc34)CC2)C1
Result :: -40.55

Query :: Give the measured Percent Effect for Cc1ccoc1C(=O)N1CCCC2(CCCN2S(C)(=O)=O)C1 (stereo unspecified)
Result :: -9.811

###

Test system: Wolbachia pipientis
assay procedure: Anti-Wolbachia Cell-Based Screen
Type: functional
Design: scale not given: in the data most compounds retested in dose-response had high values
condition parameters: 5 µM
Out of some 48,000 compounds screened, about 13,000 (27%) showed an effect of 50% or more. Some of the results follow.
endpoint name: Percent Effect (%)
Kindly answer with a numeric value in %, unit omitted.

Completed entries (count: 5):
Query :: Check Wolbachia pipientis data and give Percent Effect for Cc1nc(CO[C@@H]2CN(Cc3cnn(C)c3)[C@@H]3COC[C@@H]32)cs1.O=C(O)C(F)(F)F .
Result :: -7.827

Query :: Would you please give the reported Percent Effect of O=C(Nc1ccccc1OC1CCOC1)c1ccon1 (stereo not given) with Wolbachia pipientis?
Result :: -7.759

Query :: Send back Wolbachia pipientis Percent Effect of CC(C)C[C@@H]1N[C@H](C(=O)NCC2CC2)Cc2c[nH]c3cccc1c23 only.
Result :: 1.644

Query :: Param request: Percent Effect | system Wolbachia pipientis | item CN(CCCc1cnn(C)c1)C(=O)Nc1cccc2[nH]nnc12
Result :: -5.738

Query :: Look up and report measured Percent Effect (Wolbachia pipientis) for the following compound: Cc1nc(CN2CC[C@H]3[C@@H]2CCC(=O)N3c2cnn(C)c2)cs1.O=C(O)C(F)(F)F
Result :: 98.36

Further cases:
Query :: Print Wolbachia pipientis Percent Effect for Cc1nc(CN2CC[C@H]3[C@H]2CCN3c2nncs2)cs1.O=C(O)C(F)(F)F.O=C(O)C(F)(F)F .
Result :: 10.04

Query :: Report Percent Effect on Wolbachia pipientis for this entry: O=C(CN1CCCNC1=O)N(Cc1ccccc1)CC(F)F
Result :: -9.06

Query :: Look up and report Percent Effect, with Wolbachia pipientis as system, for CC(C)CN1CCC(NC(=O)N(C)Cc2csc3ccccc23)CC1
Result :: 14.6

Query :: Write down the reported Percent Effect (system: Wolbachia pipientis) of COCCn1cnc(-c2cc(C(=O)NC(C)C)c3ccccn23)c1
Result :: -8.086

Query :: Report value only: Percent Effect, Wolbachia pipientis, Cc1ccc(SCC(=O)NS(=O)(=O)c2ccc3c(c2)OCCO3)cc1
Result :: -12.07

###

Test system: Wolbachia pipientis
assay procedure: Anti-Wolbachia Cell-Based Screen
Type: functional
Design: scale not given: in the data most compounds retested in dose-response had high values
condition parameters: 5 µM
In all, about 48,000 compounds went through this assay and about 13,000 (27%) showed an effect of 50% or more. The list shows a part of the results.
Each item that follows carries a reported Percent Effect.
Please state the figure in %; there is no need to write the unit.

Query :: Indicate its recorded Percent Effect; the compound in question is CCC(C(=O)NCc1csc(-c2ncccn2)n1)n1cccn1 (stereo unspecified)
Result :: 6.719

Query :: Please give the documented Percent Effect of CCOCCNC(=O)c1cccnc1N1CCCC1c1ccccn1 (stereo unspecified)
Result :: 122.4

Query :: Return the recorded Percent Effect value; entry: Cc1cc(C(F)(F)F)nc(CNC(=O)CCCN2CCCCC2)n1
Result :: -0.7363

Query :: Kindly indicate its recorded Percent Effect. Item: Cc1noc2nc3c(c(C(=O)/N=c4\[nH]ncs4)c12)CCC3
Result :: 123.1

Query :: Indicate the recorded Percent Effect value for this compound: O[C@H]1[C@H](NCCSc2ccccn2)c2ccccc2C12CCNCC2
Result :: -1.82

Further cases:
Query :: Fill in Percent Effect for record CCC(C(=O)NCc1cc(N2CCOCC2)ncn1)n1cccn1 (stereo unspecified)
Result :: -0.1761

Query :: Name the recorded Percent Effect of the compound listed here: Cc1ccc2c(c1)C1(CCN(C(=O)C3CC3)CC1)CC2N1CCOCC1.O=C(O)C(F)(F)F (stereo unspecified)
Result :: 4.954

###

Test system: Wolbachia pipientis
assay procedure: Anti-Wolbachia Cell-Based Screen
Assay type: functional
Parameters: scale not given: in the data most compounds retested in dose-response had high values
condition parameters: 5 µM
Screen size: about 48,000 compounds; about 13,000 (27%) showed an effect of 50% or more. The list shows a part of the results.
Some compounds, each annotated with its measured Percent Effect.
Quick reminder: number only, in %, skip the unit.

Query :: Return reported Percent Effect. Input compound: CN1CC[C@]2(CN(Cc3nccs3)C[C@H]2c2ccccc2)C1=O.O=C(O)C(F)(F)F
Result :: -12.3

Query :: State, in one line, measured Percent Effect of CCN1C(=O)C(c2ccccc2)CC12CCN(S(C)(=O)=O)CC2 (stereo not given)
Result :: -8.52

Query :: Tell us which Percent Effect value is on record for CN1CC(c2ccccc2)C2(CCN(C(=O)c3cccn3C)CC2)C1=O (stereo not given)
Result :: -2.229

---
Query :: Indicate its recorded Percent Effect; the compound in question is CN1CC[C@]2(CN(S(C)(=O)=O)C[C@H]2c2ccccc2)C1=O
Result :: 102.2

Query :: Give the reported Percent Effect for this compound. COc1cccc(CN2C[C@@H](F)[C@@H](OCc3nc4cnccc4[nH]3)C2)c1
Result :: -9.076

Query :: Given Cc1noc(C)c1C(=O)N1CCC2(CCc3ccccc3C(=O)N2)C1 (stereo not given) , respond with its Percent Effect.
Result :: 127.4

Query :: Complete the entry with Percent Effect for CN(C)C(=O)CN1CC[C@]2(CN(CC3CC3)C[C@H]2c2ccccc2)C1=O.O=C(O)C(F)(F)F
Result :: 97.34

Query :: Tell me its Percent Effect given Cc1noc(C)c1C(=O)N1CCC2(CC1)CC(Oc1ccccc1)CO2 (stereo not given) as the entry.
Result :: -6.513

Query :: Answer with the recorded Percent Effect of CC(C)c1cc(=O)[nH]c(-c2ccccc2CN2CCC(C)(C)C2)n1 only.
Result :: 32.6

Query :: Please give the documented Percent Effect of CC(C)n1cc2cc(NC(=O)CCS(C)(=O)=O)ccc2n1
Result :: -1.641

###

Below, each of the compounds is paired with its reported Percent Effect value.
Test system: Wolbachia pipientis
assay procedure: Anti-Wolbachia Cell-Based Screen
Assay type: functional
Design: scale not given: in the data most compounds retested in dose-response had high values
condition parameters: 5 µM
Screen size: about 48,000 compounds; about 13,000 (27%) showed an effect of 50% or more. This is one part of the list.
Form entry: value (%) — number only.

See these solved cases before continuing.
Query :: Supply measured Percent Effect of O=C(c1ccc(N2CCCC2)nn1)N1CCCC(n2cccn2)C1 (stereo unspecified) in your reply.
Result :: 6.785

Query :: Give recorded Percent Effect. CCC(C)N1CCc2nc(N3CCCC3)nc(NC(C)C)c2C1 (stereo unspecified)
Result :: 120.2

Query :: Output measured Percent Effect for this item: Cc1nn(-c2ccccc2)cc1C(=O)N1CCCC(n2cccn2)C1 (stereo unspecified)
Result :: 7.584

Query :: Consider the compound CC(C)n1cc(CN2CCCN(C(=O)c3cccn3C)CC2)cn1 . State its measured Percent Effect.
Result :: 7.673

Query :: State its Percent Effect: CCN1CCc2nc(N3CCOCC3)nc(NC(C)C)c2C1
Result :: -4.113

Next compound, please.
Query :: For the compound CC(C)Nc1nc(N2CCCC2)nc2c1CN(C(C)C)CC2 , give its reported Percent Effect.
Result :: 4.85

###

This section presents molecules with their documented Percent Effect values.
Test system: Wolbachia pipientis
assay procedure: Anti-Wolbachia Cell-Based Screen
Format: functional
Parameters: scale not given: in the data most compounds retested in dose-response had high values
condition parameters: 5 µM
Out of some 48,000 compounds screened, about 13,000 (27%) showed an effect of 50% or more. Some of the results follow.
Entry rule: numbers only, all in %.

Guide cases for Percent Effect, answers given:
Query :: Supply recorded Percent Effect for O=C1C[C@H]2[C@H](CCN2C(=O)c2ccno2)N1CC1CC1 here.
Result :: 88.14

Query :: Supply Percent Effect value. Item: Cc1cnc(CN(C)CC2CCCN2c2cccnn2)cn1 (stereo not drawn)
Result :: -5.64

Query :: Answer with the recorded Percent Effect of Cc1oncc1C(=O)N1CC[C@H]2[C@@H]1CCC(=O)N2CC1CCOCC1 only.
Result :: 95.19

Query :: Give reported Percent Effect value for CCn1c(CN(C)C(C)CSC)nc2c(F)cccc21 (stereo not drawn)
Result :: -3.593

Query :: Tell us which Percent Effect value is on record for CN1CCc2c(sc3c2C(=O)NC(/C=C/c2ccccc2)N3)C1 (stereo not drawn)
Result :: 102.8

Query :: Please list Percent Effect recorded for the molecule COc1ccc(CN(C)CC2CCCN2c2cccnn2)cc1F (stereo not drawn)
Result :: 12.57

Query :: Please report the measured Percent Effect for COc1cc(F)ccc1-c1cc(N)ccn1
Result :: -8.193

Query :: Specify Percent Effect for CC(C)(C)OC(=O)NC(C)(C(N)=O)c1cccc(Cl)c1 (stereo not drawn) and stop.
Result :: 178.1

More entries:
Query :: Respond only with Percent Effect recorded for CN(Cc1cnn(-c2ccccc2)n1)CC1CCCN1c1cccnn1 (stereo not drawn)
Result :: 15.2

Query :: Tell me measured Percent Effect for CC(NC(=O)Cc1cccs1)(C(N)=O)c1cccc(Cl)c1 (stereo not drawn) please.
Result :: 80.31

Query :: Look up Percent Effect of CCn1ccnc1CN(C)CC1CCCN1c1cccnn1 (stereo not drawn) and report it.
Result :: 7.087
